Data origin: patent US20120114665A1

Target: T1, penta-his-tagged hRANKL (human)
T1 construct: also called his-hRANKL; not shown: penta-his tag
T1 chain: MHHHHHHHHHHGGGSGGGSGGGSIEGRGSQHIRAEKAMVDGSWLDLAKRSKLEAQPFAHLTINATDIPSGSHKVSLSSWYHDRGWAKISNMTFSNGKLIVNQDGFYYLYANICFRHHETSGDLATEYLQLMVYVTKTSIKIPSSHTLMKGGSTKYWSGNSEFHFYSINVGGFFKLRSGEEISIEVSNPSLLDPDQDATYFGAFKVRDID
Assay: competition ELISA: 150 pM his-hRANKL pre-mixed with antibody, free RANKL detected on hRANK-hFc plate
observedProperty: pIC50
Please treat pIC50 as minus the base-10 logarithm of the molar concentration.

>  <binder>
H4H002P (antibody, V domains shown, Purified antibody from clone 1F8) VH: QVQLVESGGGVVQPGRSLRLSCAASGFTFTGYGMHWVRQAPDKGLEWVAVISYDGTNKYYVDSVKGRFTISRDNSQNTLYLQMNSLRAEDTAVYYCAKCLSGTYWGYGMDVWGQGTTVTVS VL: DIQMTQSPSTLSASVGDRVTITCRASRSINSWLAWYQQKPGKAPKLLIYKASSLESGVPSRFSGSGSGTEFTLTISSLQPDDFASYYCQQYNNYSWTFGQGTKVEIK

>  <measured>
9.78

$$$$
>  <binder>
H4H006P (antibody, V domains shown, Purified antibody from clone 2E11) VH: QVQLVESGGGVVQPGRSLRLSCAASGFTFGGYGMHWVRQAPDKGLEWVAVISYDGNNKYYVDSVKGRFTISRDNSKNMLYLQMNSLRAEDTAVYYCAKCLSGTYWGYGMDGWGQGTTVTVS VL: DIQMTQSPSTLSASVGDRVTITCRASQSISNWLAWYQQKPGKAPKLLIYKASNLQSGVPSRFSGSGSGTEFTLTISSLQPDDFATYYCQQYNNYSWTFGQGTKVEIK

>  <measured>
10.07

$$$$

Next binder, please.
Quick note, pIC50 for H4H009P (antibody, V domains shown, Purified antibody from clone 2H10) VH: QVQLVESGGGVVQPGRSLRLSCAASGFTFSGYGIHWVRQAPDKGLEWVAVISYDGTNKYYGDSVKGRFTISRDNTKNTLYLQMNSLRTEDTAVYYCAKSLSGTYWGYGMDVWGQGTTVTVS VL: DIQMTQSPSTLSASVGDRVTITCRASQNIGNWLAWYQQKPGKAPKLLIYKASSLQNGVPSRFSGSGSGTEFTLTISSLQPDDFATYYCQRYNSYSWTFGQGTKVEIK landed at 10.22
